Listed compounds paired with reported viability at 28.5 h, 10 µM
- assay_procedure: in vitro
- condition_summary: human, hela cells, % viability
Form entry: enter the amount, then its unit.

Look over these answered cases.
{"compound": "COc1ccc(OC)c(/N=C2\\CC(=O)CC(C)(C)C2)c1", "obs_value": "106%"}
{"compound": "O=C(CCC1CCCC1)Nc1nnc[nH]1", "obs_value": "100%"}
{"compound": "CC(=O)NCC1CC(c2ccc(C3=CCN(C(C)=O)CC3)cc2)=NO1 (centres unmarked)", "obs_value": "86.8%"}
{"compound": "CCN(CC)C(=O)CN1CCCN(c2cc(OCCN3C(=O)CCC3=O)ncn2)CC1 [CBK083266T]", "obs_value": "102%"}

Asked: State the recorded viability at 28.5 h, 10 µM for this entry: O=C(O)COc1ccccc1/C=C/c1cc(C(F)(F)F)[nH]c(=O)n1
Given back: 103%

Asked: Then this compound: CC(Cc1nc(-c2cnn(C)n2)cs1)n1cc(Cl)cn1 (centres unmarked)
Given back: 90.8%

Asked: Then this compound: Cc1c(NC(=S)NC(=O)C(C)C)cccc1-c1nc2ncccc2o1
Given back: 98.3%
